measuredOn: T1, O8-AA
T1 chain: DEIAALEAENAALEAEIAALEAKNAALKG
method: two-hybrid library CCmax;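 further: natural log of median RNA to DNA barcode read ratio; higher means stronger binding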
details: mean of both orientations
Property: interaction score; scope: individual binders
Form: value (number only, do not type unit).

Reference set (2 entries):
>>> numericreadout("DENAALEAEIAALEAKNAALKAEIAALEG [O5-AA]")
-0.935
>>> numericreadout("DENAALEAEIAALEAENAALEAKIAALKG [O14-AA]")
-0.992

Item DEIAALEAKIAALKAENAALEAENAALEG [O3-AA] has what recorded interaction score?
-1.37

Item DKNAALKAKIAALKAKNAALKAEIAALEG [O13-AA] has what recorded interaction score?
1.18

Item DKIAALKAEIAALEAENAALEAENAALEG [O11-AA] has what recorded interaction score?
-1.67

Item DKIAALKAEIAALEAKNAALKAKNAALKG [O4-AA] has what recorded interaction score?
-0.637

Item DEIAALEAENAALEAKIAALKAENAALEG [4H171-AA] has what recorded interaction score?
0.645
